Test system: Mcf-7 human breast adenocarcinoma cell line
Test: cell proliferation (CellTiterGlo), single agents and combinations, Mcf-7
Format: cell-based
Conditions: Homo sapiens, MCF7, 72 h, read-out: IC50 (μM) Compound of formula (I), Mcf-7, single agent, Table 1 (gemcitabine experiment)
parameter-measured: IC50

## Input Value lookup for IC50; key = NC(=O)c1cc(-c2ccnc(N)n2)[nH]c1-c1ccc(Cl)cc1Cl
## Output 1.1 µM

* * *

Tested on: Mcf-7 human breast adenocarcinoma cell line
Test: cell proliferation (CellTiterGlo), single agents and combinations, Mcf-7
Format: cell-based
Settings: Homo sapiens, MCF7, 72 h, read-out: IC50 (μM) Compound of formula (I), Mcf-7, single agent, Table 8 (bortezomib experiment)
parameter-measured: IC50 (µM)
Response body: numeric value in µM, unit text excluded.

## Input So what does the record say about IC50 for NC(=O)c1cc(-c2ccnc(N)n2)[nH]c1-c1ccc(Cl)cc1Cl ?
## Output 0.767

* * *

System: Mcf-7 human breast adenocarcinoma cell line
Assay: cell proliferation (CellTiterGlo), single agents and combinations, Mcf-7
Format: cell-based
Conditions: Mcf-7; single agent; 72 hours; Table 4; read-out: IC50 (μM) SN38
parameter-measured: IC50 (µM)
Give just the number in µM; leave the unit off.

## Input Fill in the blank: the reported IC50 of CCc1c2c(nc3ccc(O)cc13)-c1cc3c(c(=O)n1C2)COC(=O)[C@]3(O)CC is ____.
## Output 0.024
